Data origin: PubChem BioAssay (NCI)

Test system: SK-OV-3 ovarian
Assay: NCI tumour cell line growth inhibition, 48 h
Would you kindly list TGI for each of these compounds?
Numbers only, in µM.

Consider the worked cases shown below.
Compound	Endpoint unit	TGI
Cn1ncc(C#N)c1-c1ccc2c(c1)CN([C@H](CN)Cc1cccc(F)c1)C2=O	µM	13.2
CC[C@H](C)[C@@H]([C@@H](CC(=O)N1CCC[C@H]1[C@H](OC)[C@@H](C)C(=O)NCCc1ccccc1)OC)N(C)C(=O)C(NC(=O)[C@H](C(C)C)N(C)C)C(C)C (stereo not given in full)	µM	3.48
CN(C)NC1=C([N+](=O)[O-])C=NN(c2ccccc2)C1	µM	3.46

I have 3 compounds here; please give me TGI for each one.
1. CC(C)c1oc(=O)cc2c1C(O)C1OC(=O)C3(C)C(O)C4OC4C2(C)C13 (stereo not given)
2. CC(=O)[O-].CC(=O)[O-].O=C(N/N=C/c1cc(Cl)cc(Cl)c1[OH2+])c1ccncc1.[Mn+2]
3. COc1cccc2c1C(=O)c1c(O)c3c(c(O)c1C2=O)C[C@@](O)(/C(CO)=N/NC(=O)CCCCCN1C(=O)C=CC1=O)C[C@@H]3O[C@H]1C[C@H](N)[C@H](O)[C@H](C)O1

Completion:
1. 20.3
2. 51.1
3. 36.8

I have 2 compounds here; please give me TGI for each one.
1. CCN1CCN(c2nc(C)cc(NCc3cc(Nc4ccnc5cc(Cl)ccc45)ccc3F)n2)CC1
2. CC1OC(n2cc(C(F)(F)F)c(=O)[nH]c2=O)C=CC1=O (stereo not given)

Completion:
1: 15; 2: 44.9

---

Test system: DU-145 prostate
Test: NCI tumour cell line growth inhibition, 48 h
Would you kindly list TGI for each of these compounds?

Consider the worked cases shown below.
Compound	TGI
COC(=O)C1(C(=O)OC)N=C(C)OC1c1ccccc1O (stereo unspecified)	> 100 µM
CC(=Nc1ccc(N(C)C)cc1)c1ccccc1	> 100 µM
COc1cc(S(=O)(=O)Nc2ccc(-c3csc(N4C(=O)C(C)SC4c4cccs4)n3)cc2)ccc1Cl (stereo unspecified)	53.1 µM
CN1CCC2(CC1)N=C(SCC(=O)Nc1cnc3ccccc3c1)C(c1ccc(Br)cc1)=N2	10.4 µM
COc1cc(C(=O)/C=C/c2cc(-c3ccc4c(c3)OCO4)n[nH]2)cc(OC)c1OC	9.16 µM
Cc1ccc(N(C=O)c2c([N+](=O)[O-])cc([N+](=O)[O-])c3c2=[N+]([O-])CN=3)cc1	72.9 µM
Oc1ccc2c(=S)cc(-c3ccc(Br)cc3)oc2c1O	> 100 µM
c1ccc(C2=NN2c2ccccc2)cc1	> 100 µM
CNc1cc([N+](=O)[O-])ccc1C(=O)N1CCC[C@H]1CO	> 100 µM
C=C(COCO)C(C)=O	> 65.8 µM

Lab note: next compound to report on.
Prompt: Return TGI (reported value) for this compound: `CC(=O)NS(=O)(=O)c1ccc(NCc2cccc3c(=O)c4ccc(Cl)cc4oc23)cc1`
Completion: > 100 µM

---

Would you kindly list TGI for each of these compounds?
Test system: T-47D breast
Test: NCI tumour cell line growth inhibition, 48 h

Consider the worked cases shown below.
Compound	Recorded metric	Observed result
Cc1ccc2[nH]c3c(c(=O)n(C)c(=O)n3C)c2c1	TGI	> 100 µM
COCn1cc(C2=C(C)C(=O)C(C)=C(C)C2=O)cn1	TGI	56.1 µM
CC(=O)OCC1OC(n2c(C)c(C(C)=O)c(-c3ccco3)c(C#N)c2=S)C(OC(C)=O)C(OC(C)=O)C1OC(C)=O (stereo not drawn)	TGI	> 100 µM

I have 5 compounds here; please give me TGI for each one.
1. CC[C@@H](C)/C=C(C)/C=C/C(=O)c1c(O)c(-c2ccc(OC(=O)[C@@]34CC[C@@](C)(C(=O)O3)C4(C)C)cc2)cn(O)c1=O
2. Cc1c(C(=O)c2ccccc2)[n+](=O)c2cc(Cl)c(Cl)cc2n1[O-]
3. C/C=C/c1cc2c(cc1O)CC[C@@H]1[C@@H]2CC[C@]2(C)[C@@H](O)CC[C@@H]12
4. CN(C)[C@@H]1C(=O)C(C(=O)NCNc2nc3n[nH]nc3c(=O)[nH]2)=C(O)[C@@]2(O)C(=O)C3=C(O)c4c(O)cccc4[C@@](C)(O)[C@H]3C[C@@H]12
5. CC(O)CNC(=O)Nc1c(C(F)(F)F)cc(-c2ccccc2)[nH]c1=O (stereo not drawn)

Completion:
> 50 µM
14 µM
41.7 µM
> 100 µM
> 100 µM
